System: U2OS
Test: Incucyte cell viability with U2OS; also: filed as whole numbers so only -1 and 0 and 1 occur
Type: toxicity, cell-based
Details: human, 6 h, 10 µM, compound concentration 10 uM, replicate number 1, timepoint 6 hours
Provide the reported Growth Rate of each item.
Simply state the number, no unit and no words.

Incoming: Could you tell me which Growth Rate is on file for `Cc1sc2c(c1C)C(c1ccc(Cl)cc1)=N[C@@H](CC(=O)OC(C)(C)C)c1nnc(C)n1-2` ?
Outgoing: 0

Incoming: CN(C)CC#Cc1ccc(OCCCc2sc(N3CCc4cccc(C(=O)Nc5nc6ccccc6s5)c4C3)nc2C(=O)O)c(F)c1 [A-1155463] , same question.
Outgoing: 0

Incoming: `CNCCN1CCC(OCc2ccccc2)CC1` , same question.
Outgoing: 1

Incoming: C=CC(=O)Nc1cc2c(Nc3ccc(F)c(Cl)c3)ncnc2cc1OCCCN1CCOCC1.Cl.Cl [CANERTINIB DIHYDROCHLORIDE] , same question.
Outgoing: 0

Incoming: COc1ccc(Oc2cc(NCCC(F)(F)F)c3ncc(-c4ccc(C(=O)NC5CC5)c(C)c4)n3n2)c(F)c1F [BAY-1217389] , same question.
Outgoing: 0

Incoming: Cn1cncc1[C@@](O)(COc1ccc(C#N)cc1-c1ccc(OC(F)(F)F)cc1)c1ccc(C#N)cc1 [A-108] , same question.
Outgoing: 0

Incoming: `COc1cc(-c2cn([C@H]3CCc4c(F)cccc4N(CC(F)(F)F)C3=O)nn2)ccc1-n1cnc(C)c1` , same question.
Outgoing: 0

Incoming: O=c1nc(-c2ccccn2)sc2ccccc12 [BTZO-1] , same question.
Outgoing: 1

Incoming: O=C(NCc1ncc(C(F)(F)F)cc1Cl)c1ccc2c(c1)C1(CCS(=O)(=O)CC1)[C@H](C1CC1)N2S(=O)(=O)c1ccc(F)cc1 [BAY-784] , same question.
Outgoing: 1

Incoming: `CN(C)C(=O)c1ccc(-c2cc(C(=O)N[C@@H]3CCc4ccccc43)no2)cc1O` , same question.
Outgoing: 0

Incoming: `CC(C)(O)CNc1ncc(-c2ccnc(Nc3ccnc(Cl)c3)n2)c(CC2CC2)n1` , same question.
Outgoing: 1

Incoming: `O=C(/C=C/N1C[C@H]2C[C@@H]1CN2c1ccccn1)c1ccccc1O` , same question.
Outgoing: 0

Incoming: Cc1cc(Nc2nccc(C)n2)cc(-c2cnc([C@@]3(O)CC[C@H](C(=O)O)C(C)(C)C3)s2)c1 [MRL-SYKi] , same question.
Outgoing: 0

Incoming: `O=C(O)c1ccc(-c2coc3ncc(-c4ccccc4)cc23)cc1Cl` , same question.
Outgoing: 1

Incoming: C[C@@H]1CCN(C(=O)CC#N)C[C@@H]1N(C)c1ncnc2[nH]ccc12.O=C(O)CC(O)(CC(=O)O)C(=O)O [TOFACITINIB CITRATE] , same question.
Outgoing: 0

Incoming: `NC(=O)c1ccc(NC(=O)NCc2cccc(C(=O)Nc3ccc4c(c3)CNCC4)c2)cc1` , same question.
Outgoing: 0

====

System: HEK-293T
Assay: Multiplex assay against HEK293T
Format: toxicity, cell-based
Details: human, 12 h, 1 µM, compound concentration 1 uM, replicate 1
Provide the reported Population Normal (%) of each item.
The figure you give is taken to be in %; do not add the unit.

Incoming: Could you tell me which Population Normal (%) is on file for CN1CCC[C@@H]1CCO[C@](C)(c1ccccc1)c1ccc(Cl)cc1.O=C(O)/C=C/C(=O)O [CLEMASTINE FUMARATE] ?
Outgoing: 90

Incoming: c1cn2cc(-c3ccc4cn[nH]c4c3)nc(Nc3ccc(N4CCOCC4)cc3)c2n1 [ENTOSPLETINIB] , same question.
Outgoing: 83

Incoming: COc1ncc(-c2ccc3nccc(-c4ccnnc4)c3c2)cc1NS(=O)(=O)c1ccc(F)cc1F [OMIPALISIB] , same question.
Outgoing: 80

Incoming: Cc1c(-c2ccc(O)cc2)n(Cc2ccc(OCCN3CCCCCC3)cc2)c2ccc(O)cc12 [BAZEDOXIFENE] , same question.
Outgoing: 83

Incoming: `Cc1cc(C)cc(-c2cnc3cc(Cl)c(-c4cccc(O)c4)cc3c2OCCCN)c1` , same question.
Outgoing: 89

Incoming: `C=CC(=O)Nc1ccc2ncnc(Nc3ccc(OCc4cccc(F)c4)c(Cl)c3)c2c1.Cc1ccc(S(=O)(=O)O)cc1` , same question.
Outgoing: 88

Incoming: `CN(C)C(=O)/C(C#N)=C/c1ccc(-c2nc3cnc4[nH]ccc4c3n2C2CCCCC2)o1` , same question.
Outgoing: 87

Incoming: `CC(C)(O)CNc1ncc(-c2ccnc(Nc3ccnc(Cl)c3)n2)c(CC2CC2)n1` , same question.
Outgoing: 83

Incoming: CC(C)NCC(O)COc1ccc(CCOCC2CC2)cc1.Cl (stereo unspecified) [BETAXOLOL HYDROCHLORIDE] , same question.
Outgoing: 89

Incoming: `Cc1[nH]c(/C=C2\C(=O)Nc3ccc(S(=O)(=O)N(C)c4cccc(Cl)c4)cc32)c(C)c1C(=O)N1CCN(C)CC1` , same question.
Outgoing: 83

Incoming: CN(C)CC#Cc1ccc(OCCCc2sc(N3CCc4cccc(C(=O)Nc5nc6ccccc6s5)c4C3)nc2C(=O)O)c(F)c1 [A-1155463] , same question.
Outgoing: 88

Incoming: `Cn1cc(-c2[nH]c3cc(NC(=O)[C@H](N)C4CCCCC4)cc4c3c2C=NNC4=O)cn1` , same question.
Outgoing: 85

Incoming: CCN(CC)CCCCNc1ncc2cc(-c3cc(OC)cc(OC)c3)c(NC(=O)NC(C)(C)C)nc2n1 [PD-173074] , same question.
Outgoing: 30

Incoming: `C=CC(=O)Nc1cccc(C(=O)Nc2ccc(Nc3cc(-c4[nH]c(SC)nc4C)ccn3)cc2)c1` , same question.
Outgoing: 85

Incoming: C=CC(=O)Nc1cc2c(Nc3ccc(F)c(Cl)c3)ncnc2cc1OCCCN1CCOCC1.Cl.Cl [CANERTINIB DIHYDROCHLORIDE] , same question.
Outgoing: 77

Incoming: CC[C@H](C)C(=O)O[C@H]1C[C@@H](C)C=C2C=C[C@H](C)[C@H](CC[C@@H]3C[C@@H](O)CC(=O)O3)[C@H]21 [LOVASTATIN] , same question.
Outgoing: 85

====

Provide the reported Total Cell Count of each item.
Test system: HEK-293T
Test: Multiplex assay against HEK293T
Type: toxicity, cell-based
Settings: human, 12 h, 10 µM, compound concentration 10 uM, replicate 1
Simply state the number, no unit and no words.

Incoming: Could you tell me which Total Cell Count is on file for CN1CCC[C@@H]1CCO[C@](C)(c1ccccc1)c1ccc(Cl)cc1.O=C(O)/C=C/C(=O)O [CLEMASTINE FUMARATE] ?
Outgoing: 209

Incoming: CN1CCCC(n2nc(Cc3ccc(Cl)cc3)c3ccccc3c2=O)CC1.Cl (stereo not drawn) [AZELASTINE HYDROCHLORIDE] , same question.
Outgoing: 289

Incoming: C[C@@H](NCCCc1cccc(C(F)(F)F)c1)c1cccc2ccccc12.Cl [CINACALCET HYDROCHLORIDE] , same question.
Outgoing: 195

Incoming: O=C1NCN(c2ccccc2)C12CCN(CCCOc1ccc(F)cc1)CC2 [SPIRAMIDE] , same question.
Outgoing: 210

Incoming: `CN(C)CC#Cc1ccc(OCCCc2sc(N3CCc4cccc(C(=O)Nc5nc6ccccc6s5)c4C3)nc2C(=O)O)c(F)c1` , same question.
Outgoing: 288

Incoming: COc1cccc([C@@H](C)NCCCc2ccccc2Cl)c1.Cl [TECALCET HYDROCHLORIDE] , same question.
Outgoing: 290

Incoming: `CC[C@H](C)C(=O)O[C@H]1C[C@@H](C)C=C2C=C[C@H](C)[C@H](CC[C@@H]3C[C@@H](O)CC(=O)O3)[C@H]21` , same question.
Outgoing: 341

Incoming: `CN(C)C(=O)/C(C#N)=C/c1ccc(-c2nc3cnc4[nH]ccc4c3n2C2CCCCC2)o1` , same question.
Outgoing: 451

====

Provide the reported Population Fragmented Nuclei (%) of each item.
Test system: HEK-293T
Test: Multiplex assay against HEK293T
Assay type: toxicity, cell-based
Conditions: human, 48 h, 1 µM, compound concentration 1 uM, replicate 1
The figure you give is taken to be in %; do not add the unit.

Incoming: Could you tell me which Population Fragmented Nuclei (%) is on file for `Cc1csc2c(N[C@@H](C)CN3CCN(S(=O)(=O)c4ccc(Cl)c(Cl)c4)CC3)ncnc12` ?
Outgoing: 16

Incoming: `CN1CCN(CCOc2cc(OC3CCOCC3)c3c(Nc4c(Cl)ccc5c4OCO5)ncnc3c2)CC1` , same question.
Outgoing: 16

Incoming: `Cn1cc(-c2[nH]c3cc(NC(=O)[C@H](N)C4CCCCC4)cc4c3c2C=NNC4=O)cn1` , same question.
Outgoing: 22

Incoming: `Cc1nc(-c2ccc(-c3ccc(C(=O)N4CCc5cc6c(cc54)C4(CCN(C)CC4)CO6)cc3)c(C)c2)no1` , same question.
Outgoing: 21
